The reader will find reported growth values listed item by item below.
Tested on: E. coli TESEC Mtb Asd
Assay: growth (OD600 after 10 h); higher = more growth (less inhibition)
Conditions: arabinose induction (level): High; compound 0.1 mM; raw OD600 reference: median of DMSO wells 0.331, cell-free background 0.041
Where a name gives a salt, the structure may show the parent alone.

Compound: CC1(C)O[C@@H]2C[C@H]3[C@@H]4C[C@H](F)C5=CC(=O)C=C[C@]5(C)[C@@]4(F)[C@@H](O)C[C@]3(C)[C@]2(C(=O)CO)O1 [Fluocinolone acetonide]
growth: 0.198
//
Compound: O=C(O)Cc1ccc(-c2ccccc2)cc1 [Felbinac]
growth: 0.273
//
Compound: COc1c(O[C@@H]2O[C@H](CO)[C@@H](O)[C@H](O)[C@H]2O)cc2c(c1OC)-c1ccc(SC)c(=O)cc1[C@@H](NC(C)=O)CC2 [Thiocolchicoside]
growth: 0.271
//
Compound: CC(=O)/N=c1/sc(S(N)(=O)=O)nn1C [Methazolamide]
growth: 0.342
//
Compound: Cc1cccc(C)c1NC(=O)CN1CCN(CCCC(c2ccc(F)cc2)c2ccc(F)cc2)CC1 [Lidoflazine]
growth: 0.333
//
Compound: COc1cnc(NS(=O)(=O)c2ccc(N)cc2)nc1 [Sulfameter]
growth: 0.442
//
Compound: CN(C)CCOC1=Cc2ccccc2Sc2ccc(Cl)cc21 [Zotepine]
growth: 0.168
//
Compound: O=C(N[C@H](CO)[C@H](O)c1ccc([N+](=O)[O-])cc1)C(Cl)Cl [Chloramphenicol]
growth: 0.0519
//
Compound: N=C(N)NCCN1CCCCCCC1 [Guanethidine sulfate]
growth: 0.291
//
Compound: N[C@H]1CONC1=O [(S)-(-)-Cycloserine]
growth: 0.329
//
Compound: O=C(O)CCc1nc(-c2ccccc2)c(-c2ccccc2)o1 [Oxaprozin]
growth: 0.223
//
Compound: NCCCCCC(=O)O [Aminocaproic acid]
growth: 0.47
//
Compound: Nc1ccn([C@@H]2CS[C@H](CO)O2)c(=O)n1 [Lamivudine]
growth: 0.353
//
Compound: Cc1ccc(C)c(OCCCC(C)(C)C(=O)O)c1 [Gemfibrozil]
growth: 0.202
//
Compound: CCCCOc1ccc(CC(=O)NO)cc1 [Bufexamac]
growth: 0.33
//
Compound: N=C(N)N1CCc2ccccc2C1 [Debrisoquin sulfate]
growth: 0.373
//
Compound: CC[C@@H]1C(=O)OC[C@@H]1Cc1cncn1C [Pilocarpine nitrate]
growth: 0.222
//
Compound: N=C(N)NCc1cccc(I)c1 [Iobenguane sulfate]
growth: 0.29
//
Compound: CC12CC3CC(C)(C1)CC(N)(C3)C2 [Memantine Hydrochloride]
growth: 0.256
//
Compound: NCCc1c[nH]cn1 [Histamine dihydrochloride]
growth: 0.303
//
Compound: COc1ccc2[nH]c([S+]([O-])Cc3ncc(C)c(OC)c3C)nc2c1 (configuration not stated) [Omeprazole]
growth: 0.298
//
Compound: COc1ccc(CCN(C)CCCC(C#N)(c2ccc(OC)c(OC)c2)C(C)C)cc1OC (configuration not stated) [Verapamil hydrochloride]
growth: 0.243
//
Compound: C[C@]12CC[C@H]3C(=CCc4cc(O)ccc43)[C@@H]1CCC2=O [Equilin]
growth: 0.159
//
Compound: N=C(N)NC(=O)Cc1c(Cl)cccc1Cl [Guanfacine hydrochloride]
growth: 0.43
//
Compound: CC(C)(C)NC(=O)[C@@H]1CN(Cc2cccnc2)CCN1C[C@@H](O)C[C@@H](Cc1ccccc1)C(=O)N[C@H]1c2ccccc2C[C@H]1O [Indinavir sulfate]
growth: 0.239
//
Compound: COc1cc([S+](C)[O-])ccc1-c1nc2cccnc2[nH]1 (configuration not stated) [Sulmazole]
growth: 0.231
//
Compound: Cc1ccccc1N1C(=O)c2cc(S(N)(=O)=O)c(Cl)cc2NC1C (configuration not stated) [Metolazone]
growth: 0.386
//
Compound: CC(COc1ccccc1)NC(C)C(O)c1ccc(O)cc1 (configuration not stated) [Isoxsuprine hydrochloride]
growth: 0.25
//
Compound: NCc1ccc(S(N)(=O)=O)cc1 [Mafenide hydrochloride]
growth: 0.358
//
Compound: CC(C)c1ccc2oc3nc(N)c(C(=O)O)cc3c(=O)c2c1 [Amlexanox]
growth: 0.393
//
Compound: CN(C/C=C/c1ccccc1)Cc1cccc2ccccc12 [Naftifine hydrochloride]
growth: 0.269
//
Compound: CC(C[N+](C)(C)C)OC(N)=O (configuration not stated) [Bethanechol chloride]
growth: 0.373
//
Compound: COc1ccccc1OCC(O)COC(N)=O (configuration not stated) [Methocarbamol]
growth: 0.292
//
Compound: CCN(CC)Cc1cc(Nc2ccnc3cc(Cl)ccc23)ccc1O [Amodiaquin dihydrochloride dihydrate]
growth: 0.179
//
Compound: C[C@]1(Cn2ccnn2)[C@H](C(=O)O)N2C(=O)C[C@H]2S1(=O)=O [Tazobactam]
growth: 0.405
//
Compound: CCN(CC)CCNC(=O)c1cc(S(C)(=O)=O)ccc1OC [Tiapride hydrochloride]
growth: 0.295
//
Compound: CC[N+](CC)(CC)CCOc1cccc(OCC[N+](CC)(CC)CC)c1OCC[N+](CC)(CC)CC [Gallamine triethiodide]
growth: 0.233

----------
System: E. coli TESEC Mtb Alr
Assay: growth (OD600 after 10 h); higher = more growth (less inhibition)
Conditions: arabinose 100000 nM; compound 0.1 mM; raw OD600 reference: median of DMSO wells 0.201, cell-free background 0.041
Where a name gives a salt, the structure may show the parent alone.
The reader will find reported growth values listed item by item below.

Molecule: Nc1ccc(S(=O)(=O)Nc2cnc3ccccc3n2)cc1 [Sulfaquinoxaline sodium salt]
Assayed System: E. coli TESEC Mtb Alr
growth: 0.21

Molecule: Cn1c(=O)c2c(ncn2CCO)n(C)c1=O
Assayed System: E. coli TESEC Mtb Alr
growth: 0.228

Molecule: C[C@@H]1C[C@H]2[C@@H]3C[C@H](F)C4=CC(=O)C=C[C@]4(C)[C@@]3(F)[C@@H](O)C[C@]2(C)[C@@]1(O)C(=O)CO
Assayed System: E. coli TESEC Mtb Alr
growth: 0.188

Molecule: CC[C@H](C)C(=O)O[C@H]1CCC=C2C=C[C@H](C)[C@H](CC[C@@H]3C[C@@H](O)CC(=O)O3)[C@H]21
Assayed System: E. coli TESEC Mtb Alr
growth: 0.134

Molecule: Cc1c(N)c(=O)n(-c2ccccc2)n1C
Assayed System: E. coli TESEC Mtb Alr
growth: 0.217

Molecule: Nc1nc(N)c2nc(-c3ccccc3)c(N)nc2n1
Assayed System: E. coli TESEC Mtb Alr
growth: 0.138

Molecule: CC(C)(CO)C(O)C(=O)NCCCO (stereo not drawn)
Assayed System: E. coli TESEC Mtb Alr
growth: 0.216

Molecule: O=C(NCC(O)CO)c1c(I)c(C(=O)NCC(O)CO)c(I)c(N(CCO)C(=O)CO)c1I (stereo not drawn)
Assayed System: E. coli TESEC Mtb Alr
growth: 0.208

----------
System: E. coli TESEC Mtb DapB
Assay: growth (OD600 after 10 h); higher = more growth (less inhibition)
Conditions: arabinose induction (level): High; compound 0.1 mM; raw OD600 reference: median of DMSO wells […], cell-free background 0.041
Structures can show the parent of a compound that is named as a salt.
The reader will find reported growth values listed item by item below.
Assay Metric: growth

Compound: Cc1ccc(-c2ncc(Cl)cc2-c2ccc(S(C)(=O)=O)cc2)cn1
Measured: 0.204
--
Compound: CCCCc1cc2ccccc2c(OCCN(C)C)n1 [Dimethisoquin hydrochloride]
Measured: 0.167
--
Compound: COc1cc(C(=O)NS(=O)(=O)c2ccccc2C)ccc1Cc1cn(C)c2ccc(NC(=O)OC3CCCC3)cc12
Measured: 0.179
--
Compound: CCCc1cc(C(N)=S)ccn1 [Prothionamide]
Measured: 0.208
--
Compound: CO[C@@]1(NC(=O)C2SC(=C(C(N)=O)C(=O)O)S2)C(=O)N2C(C(=O)O)=C(CSc3nnnn3C)CS[C@@H]21 (stereo partly drawn)
Measured: 0.0527
--
Compound: COC(=O)Nc1nc2cc(C(=O)c3ccccc3)ccc2[nH]1
Measured: 0.206
--
Compound: O=C(O)c1cc(/N=N/c2ccc(S(=O)(=O)Nc3ccccn3)cc2)ccc1O
Measured: 0.207
--
Compound: Cc1ccc(Cl)c(Nc2ccccc2C(=O)O)c1Cl [Meclofenamic acid sodium salt monohydrate]
Measured: 0.118

----------
System: E. coli TESEC Mtb Asd
Assay: growth (OD600 after 10 h); higher = more growth (less inhibition)
Details: arabinose induction (level): Low; compound 0.1 mM; raw OD600 reference: median of DMSO wells 0.417, cell-free background 0.041
Structures can show the parent of a compound that is named as a salt.
The reader will find reported growth values listed item by item below.

Compound: C[C@H](CCC(=O)O)[C@H]1CC[C@H]2[C@@H]3C(=O)C[C@@H]4CC(=O)CC[C@]4(C)[C@H]3CC(=O)[C@]12C [Dehydrocholic acid]
growth: 0.33

Compound: CC(=O)O[C@]1(C(C)=O)CC[C@H]2[C@@H]3C=C(C)C4=CC(=O)CC[C@@H]4[C@H]3CC[C@@]21C [Nomegestrol acetate]
growth: 0.104

Compound: NS(=O)(=O)c1cc2c(cc1C(F)(F)F)NCNS2(=O)=O [Hydroflumethiazide]
growth: 0.442

Compound: O=C(CCCCC(=O)Nc1c(I)cc(I)c(C(=O)O)c1I)Nc1c(I)cc(I)c(C(=O)O)c1I [Iodipamide]
growth: 0.452

Compound: O=C1c2cccc(O)c2C(=O)c2c(O)cccc21 [1,8-Dihydroxyanthraquinone]
growth: 0.147

Compound: CCc1cc(Cl)c(OC)c(C(=O)NC[C@@H]2CCCN2CC)c1O [S(-)Eticlopride hydrochloride]
growth: 0.356

Compound: N[C@@H](Cc1cc(I)c(Oc2ccc(O)c(I)c2)c(I)c1)C(=O)O
growth: 0.152

Compound: CCOc1cc(CC(=O)N[C@@H](CC(C)C)c2ccccc2N2CCCCC2)ccc1C(=O)O [Repaglinide]
growth: 0.247

Compound: CC(=O)O[C@@]12CO[C@@H]1C[C@H](O)[C@@]1(C)C(=O)[C@H](O)C3=C(C)[C@@H](OC(=O)[C@H](O)[C@@H](NC(=O)OC(C)(C)C)c4ccccc4)C[C@@](O)([C@@H](OC(=O)c4ccccc4)[C@H]21)C3(C)C
growth: 0.373

Compound: Oc1c(Cl)cc(Cl)c(Cl)c1Cc1c(O)c(Cl)cc(Cl)c1Cl
growth: 0.0553

Compound: Nc1ccc(S(=O)(=O)Nc2ncccn2)cc1
growth: 0.414

Compound: COC(=O)[C@H]1[C@H]2C[C@@H]3c4[nH]c5cc(OC)ccc5c4CCN3C[C@H]2C[C@@H](OC(=O)c2cc(OC)c(OC)c(OC)c2)[C@@H]1OC
growth: 0.191

Compound: O=C1O[C@H]([C@@H](O)CO)C(O)=C1O
growth: 0.445

Compound: O=C(O)c1cc(-c2ccc(F)cc2F)ccc1O
growth: 0.139

Compound: CCn1cc(C(=O)O)c(=O)c2ccc(C)nc21 [Nalidixic acid sodium salt]
growth: 0.0829

Where do the numbers come from? From the supplement of paper PMC9262897.
